# Measurement protocol: Spectroscopic characterization of BODIPY dyes (absorption, emission, FWHM, quantum yield)
# Type: physicochemical
# Condition description: Table 1, free dye, solvent not stated
Attribute: Em Max
Answer format: numeric, nm implied, no suffix.

Here are 4 substances together with their reported answers.
| Substance | Em Max / nm |
| --- | --- |
| BODIPY 630/650 | 641 |
| BODIPY TMR | 570 |
| BODIPY 650/665 | 665 |
| BODIPY TR | 620 |

Request: # Em Max lookup, item BODIPY 581/591
Response: 590

====

Attribute: FWHM
# Measurement protocol: Spectroscopic characterization of BODIPY dyes (absorption, emission, FWHM, quantum yield)
# Type: physicochemical
# Condition description: Table 1, full width half maximum of emission, free dye
Answer as a quantity: numeral, then unit.

Here are 4 substances together with their reported answers.
| Substance | FWHM |
| --- | --- |
| BODIPY 650/665 | 37 nm |
| BODIPY 630/650 | 30 nm |
| BODIPY 581/591 | 29 nm |
| BODIPY TR | 35 nm |

Below: the item to evaluate.
Request: # FWHM lookup, item BODIPY TMR
Response: 30 nm

====

Attribute: Abs Max
# Measurement protocol: Spectroscopic characterization of BODIPY dyes (absorption, emission, FWHM, quantum yield)
# Assay type: physicochemical
# Condition description: Table 1, free dye, solvent not stated
Answer format: numeric, nm implied, no suffix.

Here are 4 substances together with their reported answers.
| Substance | Result value |
| --- | --- |
| BODIPY 581/591 | 582 |
| BODIPY TR | 590 |
| BODIPY TMR | 550 |
| BODIPY 650/665 | 650 |

Below: the item to evaluate.
Request: # Abs Max lookup, item BODIPY 630/650
Response: 630
